- target of assay: Prostaglandin E2 receptor EP2 subtype (Homo sapiens) (UniProt P43116)
- Sequence (P43116 whole entry, looked up): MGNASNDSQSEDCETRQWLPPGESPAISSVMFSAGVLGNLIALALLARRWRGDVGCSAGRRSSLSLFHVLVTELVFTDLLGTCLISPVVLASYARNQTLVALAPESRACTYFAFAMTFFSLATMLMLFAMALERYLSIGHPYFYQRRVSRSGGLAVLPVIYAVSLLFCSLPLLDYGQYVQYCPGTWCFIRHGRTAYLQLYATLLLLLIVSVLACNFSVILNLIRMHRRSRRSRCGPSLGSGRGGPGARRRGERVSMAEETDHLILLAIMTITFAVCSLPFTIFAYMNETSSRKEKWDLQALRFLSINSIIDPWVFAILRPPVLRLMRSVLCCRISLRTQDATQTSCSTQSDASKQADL
- assay protocol: EP2 receptor modulators, cAMP readout, primary screen, cell-based, HTRF cAMP, PGE2 stimulation (AID 940);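 further: rat C6 glioma line stably carrying human EP2 under a CMV promoter; the protocol text gives 20 µM as final concentration; 100% = response of wells given 1 µM PGE2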
- measurement setup: EP2-expressing cells, cAMP HTRF FRET, PGE2 co-stimulation; at 25 µM; active compounds read high
About 2,200 (0.85%) of roughly 260,000 compounds were called active. The entries come from a sample that favours actives as a whole.
Please provide measured induction for the entries that follow.
Just the number in %, nothing appended.

induction in this record for CCOCCCNC(=O)CSc1ncnc2c1sc1nc3ccccc3cc12 : -36

For this compound ( Cn1nnc2cc(NC(=O)Nc3ccc(F)cc3)ccc21 ), measured induction is -20.8

Record summary for CCN1CCN(C(=O)[C@H]2C[C@@H](c3ccc(OC)c(OC)c3)NS(=O)(=O)N2C)CC1 : reported induction = -8.26

Looking up COc1cc(CN2CCN(C(=O)c3cc(OC)c(OC)c(OC)c3)CC2)cc(OC)c1O , I found its induction recorded as -32.7

Item: CC(C)CCSc1ncnc2c1oc1nc3c(cc12)COC(C)(C)C3 | induction: 29.9

Record Cc1c(CN(C)C(=O)CSc2nc(-c3cccs3)cc(C(F)(F)F)n2)cnn1C . Reported induction: 9.94

Lab note: CCOC(=O)CC(=O)CSc1nc(-c2ccccc2)cc(-c2ccc(Cl)cc2)c1C#N gave induction of 9.52

So, Cc1nn(CC(=O)NC2CCCC2)c(=O)c2cc3sccc3n12 ? Its induction was 1.55

Just so you know, measured induction for CN(C(=O)Cc1ccccc1F)c1nc2c(s1)CCc1occc1-2 came out at -25.4

// induction value for CC(C(=O)N1CCC(n2nc(-c3ccco3)ccc2=O)CC1)c1ccccc1 (stereo not given) : -23.1

====

- target of assay: Prostaglandin E2 receptor EP2 subtype (Homo sapiens) (UniProt P43116)
- assay protocol: EP2 receptor modulators, cAMP readout, primary screen, cell-based, HTRF cAMP, PGE2 stimulation (AID 940);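 further: rat C6 glioma line stably carrying human EP2 under a CMV promoter; the protocol text gives 20 µM as final concentration; 100% = response of wells given 1 µM PGE2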
- measurement setup: EP2-expressing cells, cAMP HTRF FRET, PGE2 co-stimulation; at 25 µM; active compounds read high
In all, about 260,000 compounds went through this assay and about 2,200 (0.85%) were called active. The full list was thinned out, with actives kept by preference.
Think of 40% as a floor: if induction stands on it or above, it is Condition met; beneath it, Condition not met.

**Query** Answer whether induction of Cc1ccc2nc(NC(=O)c3c(O)c4cccc5c4n(c3=O)CC5)sc2c1 is greater than or equal to 40%.
**Result** Condition not met

**Query** Textbook exercise: given the entry COc1cccc(-c2cnc(OC(C)(C)C)nc2OC(C)(C)C)c1 , state whether its induction is greater than or equal to 40%.
**Result** Condition met

**Query** Dear colleague, could you confirm whether CCn1c(SCC(=O)Nc2ccc(C)cc2C)nnc1C(C)C has induction at or above 40%?
**Result** Condition not met

**Query** Given CC1=CC(C)(C)N(C(=O)CSc2nnc(-c3ccccc3)o2)c2ccc(C)cc21 , state whether its induction is at least 40%.
**Result** Condition met

**Query** Hello, I need to know if CCCC(=O)Nc1ncnc2c1ncn2C1O[C@@H]2COP(=O)(O)O[C@H]2[C@H]1OC(=O)CCC (some centres not stated) has measured induction not below 40%. Thanks!
**Result** Condition met

**Query** Does the molecule COC(=O)c1ccc(S(=O)(=O)NCc2ccccc2)n1C have recorded induction that is 40% or more?
**Result** Condition met

**Query** Tell me whether induction is at least 40% here: Cc1ccc(C(=O)c2c(NC(=O)c3ccccc3)sc(C)c2C)cc1
**Result** Condition not met

**Query** induction >= 40% for COC(=O)c1ccc(S(=O)(=O)N(CCO)Cc2ccccc2)n1C ?
**Result** Condition not met

**Query** Check the entry OC[C@H]1O[C@@H](n2cnc3c(N[C@H]4CC5CCC4C5)ncnc32)[C@H](O)[C@@H]1O (some centres not stated) : does induction equal or exceed 40%?
**Result** Condition not met

**Query** Decide: is the reported value of induction for C=CCn1c(=O)c(C(=O)Nc2cccc(C)n2)c(O)c2ccccc21 equal to or greater than 40%?
**Result** Condition not met

**Query** Could you verify whether the entry CC(C)NC(=S)N1CCN(C(c2ccccc2)c2ccccc2)CC1 shows induction of no less than 40%?
**Result** Condition not met

**Query** Given COc1cc(/C=C/C(=O)N2c3ccccc3Sc3ccc(C(F)(F)F)cc32)cc(OC)c1OC , state whether its induction is at least 40%.
**Result** Condition not met

**Query** Evaluate CC(C)(C)Oc1ncc(Br)c(OC(C)(C)C)n1 : induction at minimum 40%?
**Result** Condition not met

**Query** Exam item: decide whether the reported induction for COc1ccccc1NC(=S)N1CCN(C(c2ccccc2)c2ccccc2)CC1 is at least 40%.
**Result** Condition met

**Query** Has O=C(CN1CCCCC1)N1c2ccccc2Sc2ccc(C(F)(F)F)cc21 a recorded induction greater than or equal to 40%?
**Result** Condition met

**Query** Given O=C(Nc1cccc2ccccc12)C1CCN(C(=O)c2cccc(Cl)c2)CC1 , state whether its induction is at least 40%.
**Result** Condition not met

**Query** Check the entry Cc1cc2c(cc3c(=O)n(CC(=O)N(Cc4ccncc4)C4CC4)nc(C)n32)s1 : does induction equal or exceed 40%?
**Result** Condition met

**Query** Is induction at least 40%? Consider COc1ccc(-c2nc(SCC(=O)O)n[nH]2)cc1
**Result** Condition not met

**Query** Form field: induction at least 40%? Entry: Cc1ccc2c(c1)C(=O)CC1(CCN(C(=O)N3CCOCC3)CC1)O2
**Result** Condition not met

**Query** Is the recorded value of induction equal to or greater than 40% for this molecule? CSc1nc2nc(-c3cccc(C(F)(F)F)c3)ccn2n1
**Result** Condition not met

**Query** Given CC1=CC(C)(C)N(C(=O)CSc2nccn2C)c2cc(C)ccc21 , state whether its induction is at least 40%.
**Result** Condition met

**Query** Identify whether the reported induction of the following molecule is 40% or greater: CC(=O)c1ccc2c(c1)c1ccccc1n2CC(C)C
**Result** Condition met

====

- target of assay: Prostaglandin E2 receptor EP2 subtype (Homo sapiens) (UniProt P43116)
- assay protocol: EP2 receptor modulators, cAMP readout, primary screen, cell-based, HTRF cAMP, PGE2 stimulation (AID 940);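 further: rat C6 glioma line stably carrying human EP2 under a CMV promoter; the protocol text gives 20 µM as final concentration; 100% = response of wells given 1 µM PGE2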
- measurement setup: EP2-expressing cells, cAMP HTRF FRET, PGE2 co-stimulation; at 25 µM; active compounds read high
The whole screen tested about 260,000 compounds, of which about 2,200 (0.85%) were called active. This is one part of a sample in which actives are shown more often than they occur.
reported metric: induction (%)
Give just the number in %; leave the unit off.

Consider CC(=O)Nc1nonc1-c1nc2ccccc2n1Cc1ccccn1 . Its measured induction is 4.24

Briefly, induction measured for CCC(c1nnnn1C1CCCC1)N(Cc1cccs1)Cc1cc2ccc(C)c(C)c2[nH]c1=O (stereo unspecified) : 49

Recorded result, Nc1nonc1-c1nc2ccccc2n1Cc1ccc(F)cc1 , induction: 28.5

Notebook: COc1ccc(C)c(Cn2c(-c3nonc3N)nc3ccccc32)c1 , induction read as 69

So for CCOc1ccc2nc(Nc3nc(C)c(C(C)=O)c(C)n3)nc(C)c2c1 , the logged induction turned out to be -18.1

The measured induction associated with CCC(c1nnnn1C1CCCCC1)N(Cc1cccs1)Cc1cc2cc(C)cc(C)c2[nH]c1=O (stereo unspecified) reads 75.2

====

- target of assay: Prostaglandin E2 receptor EP2 subtype (Homo sapiens)
- assay protocol: EP2 receptor modulators, cAMP readout, primary screen, cell-based, HTRF cAMP, PGE2 stimulation (AID 940);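 further: rat C6 glioma line stably carrying human EP2 under a CMV promoter; the protocol text gives 20 µM as final concentration; 100% = response of wells given 1 µM PGE2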
- measurement setup: EP2-expressing cells, cAMP HTRF FRET, PGE2 co-stimulation; at 25 µM
Screen size: about 260,000 compounds; about 2,200 (0.85%) were called active.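 Rule for the calls: active = compounds whose cAMP rise, as percent of the full-agonist control response, exceeds 60; inactive = the rest.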 Only a selection was taken, and actives are over-represented in it overall.
Select the correct class. Options are label 1 = active, label 0 = inactive and nothing else.

**Query** Test call, this compound: CCn1c(SCC(=O)Nc2cc(Cl)ccc2Cl)nc2sc(C)c(C)c2c1=O
**Result** label 0

**Query** Given c1ccc(C(c2nnnn2C2CCCCC2)N2CCc3ccccc3C2)cc1 (stereo not given) , state the outcome it received in this test.
**Result** label 1

**Query** For CCN1CCCC1CN(Cc1ccccn1)Cc1cccn1-c1ccncc1 (stereo not given) , what call appears in the results of this test?
**Result** label 0

**Query** What is the recorded call for this compound in the test? c1ccc(C(c2ccccc2)N2CCN(Cc3nnnn3C3CCCCC3)CC2)cc1
**Result** label 0

**Query** # lookup: test call for CCn1c(CSc2nc(C)cc(C)n2)nnc1SCC(=O)Nc1cccc(C(F)(F)F)c1
**Result** label 0
